# inhibition at 10 µM per record follows
target: HIV-1 protease (Human immunodeficiency virus type 1 group M subtype B); test: biochemical; settings: read-out: HIV-1 Protease % Inhib, dose 10.000 uM
quantity measured: inhibition at 10 µM (%)

>>> print(df.to_string())
                                   compound                           subject_of_test  qualifier_operator  endpoint_value
0  CCOC(=O)C(CC)c1c(O)c2ccccc2oc1=O (centres unmarked)  HIV-1 protease (Human immunodeficiency virus type 1 group M subtype B)                   <              10
1  O=c1oc2c(c(O)c1C(c1cccc(NS(=O)(=O)c3cccc(NS(=O)(=O)c4ccccc4)c3)c1)C1CC1)CCCCCC2 (centres unmarked)  HIV-1 protease (Human immunodeficiency virus type 1 group M subtype B)                   =             102
2  CCC(c1cccc(NC(=O)CCc2ccccc2)c1)c1c(O)c2ccc(OC)cc2oc1=O (centres unmarked)  HIV-1 protease (Human immunodeficiency virus type 1 group M subtype B)                   =            94.4
3  CN(C)c1ccc(N=Nc2ccc(S(=O)(=O)Nc3cccc(C(c4c(O)c5c(oc4=O)CCCCCC5)C4CC4)c3)cc2)cc1 (centres unmarked)  HIV-1 protease (Human immunodeficiency virus type 1 group M subtype B)                   =            43.7
4  CCCC1CCCCc2c1oc(=O)c(C(c1ccccc1)C1CC1)c2O (centres unmarked)  HIV-1 protease (Human immunodeficiency virus type 1 group M subtype B)                   =            88.3
5  CC(C)(C)OC(=O)N1CCC[C@H]1C(=O)Nc1cccc(C(c2c(O)c3c(oc2=O)CCCCCC3)C2CC2)c1 (some centres unmarked)  HIV-1 protease (Human immunodeficiency virus type 1 group M subtype B)                   =            93.8
6  Nc1ccc(S(=O)(=O)Nc2cccc(C(c3c(O)c4c(oc3=O)CCCCCC4)C3CC3)c2)cc1 (centres unmarked)  HIV-1 protease (Human immunodeficiency virus type 1 group M subtype B)                   =             113
7  O=c1oc2c(c(O)c1C(c1ccccc1)C1CC1)CCCCCC2 (centres unmarked)  HIV-1 protease (Human immunodeficiency virus type 1 group M subtype B)                   =             101
